tgt: Brain CCK Receptor (Cavia porcellus)
Sequence (H0VZC5 1-426): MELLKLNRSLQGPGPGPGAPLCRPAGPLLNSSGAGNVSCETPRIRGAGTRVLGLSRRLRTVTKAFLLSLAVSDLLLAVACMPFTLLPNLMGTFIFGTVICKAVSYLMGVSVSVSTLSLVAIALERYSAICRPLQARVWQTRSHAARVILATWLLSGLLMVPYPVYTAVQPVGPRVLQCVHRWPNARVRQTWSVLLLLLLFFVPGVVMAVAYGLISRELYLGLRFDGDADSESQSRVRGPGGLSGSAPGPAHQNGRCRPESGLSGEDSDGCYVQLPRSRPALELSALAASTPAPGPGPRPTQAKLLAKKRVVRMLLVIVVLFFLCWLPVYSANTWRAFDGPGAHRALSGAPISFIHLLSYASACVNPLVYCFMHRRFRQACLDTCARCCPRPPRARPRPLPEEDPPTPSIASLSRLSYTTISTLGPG
pIC50: −log10 of the molar value.
quantity: pIC50

In [3]: df
Out[3]:
                                        mol  reported_value
0  CC1=C\C=C\[C@@H](O)Cc2nc(co2)C(=O)N2CCC=C2C(=O)O[C@H](C(C)C)[C@H](C)/C=C/C(=O)NC\C=C\1            8.11
1  CC1=C\CCC(=O)Cc2nc(co2)C(=O)N2CCC=C2C(=O)O[C@H](C(C)C)[C@H](C)/C=C/C(=O)NC\C=C\1            6.57
2  CC1=C\[C@@H](O)CC(=O)Cc2nc(co2)C(=O)N2CCC=C2C(=O)O[C@H](C(C)C)[C@H](C)/C=C/C(=O)NC\C=C\1            6.24
3  CC1=C\C=C\C(=O)Cc2nc(co2)C(=O)N2CCC=C2C(=O)O[C@H](C(C)C)[C@H](C)/C=C/C(=O)NC\C=C\1            7.88
4  CC1=C\C=C\[C@H](O)Cc2nc(co2)C(=O)N2CCC=C2C(=O)O[C@H](C(C)C)[C@H](C)/C=C/C(=O)NC\C=C\1            8.21
